experiment: Acute oral toxicity, guinea pigs
run parameters: guinea pig, in vivo, po
parameter measured: LD50 (mg/kg)
Give just the number in mg/kg; leave the unit off.

Req: Request the reported LD50 associated with COc1cc(NC(C)CCCN)c2ncccc2c1 (stereo not shown) [Primaquine Diphosphate, reference compound]
Resp: 54

###

Tested on: Plasmodium berghei
experiment: Blood schizonticidal (suppressive) test, Rane mouse test, P. berghei
Format: in vivo, Plasmodium berghei KBG 173 in ICR/HA Swiss mice
run parameters: 640 mg/kg × 1, s.c.; five mice; Table III
Source text: Blood Schizonticidal Test (Mouse), University of Miami, Rane (Suppressive) This system is based on comparisons of responses to test compounds by Plasmodium berghei KBG 173 malaria in mice as expressed in mean survival times and the mean survival times of untreated controls. Thus, compounds noted as active produce increases in the survival times of the treated animals that are significant when compared with the survival times of untreated controls. […]
parameter measured: Toxic (T)
Give just the number in T; leave the unit off.

[
  {
    "molecule": "COc1cc(NC(C)CCCN)c2ncccc2c1 (stereo not drawn) [Primaquine Diphosphate, reference compound]",
    "Toxic (T)": 5
  },
  {
    "molecule": "COc1cc(NC(C)CCCN)c2nccc(C)c2c1Oc1ccc(Cl)cc1Cl (stereo not drawn)",
    "Toxic (T)": 2
  },
  {
    "molecule": "COc1cc(NC(C)CCCNC(C)C)c2nccc(C)c2c1Oc1cccc(C(F)(F)F)c1.O=C(O)CCC(=O)O (stereo not drawn)",
    "Toxic (T)": 4
  }
]

Req: Field: Toxic (Plasmodium berghei). Entry: COc1cc(NC(C)CCCN)c2nccc(C)c2c1Oc1ccc(F)cc1.O=P(O)(O)O (stereo not drawn)
Resp: 2

Req: Provide value of Toxic for this record tested with Plasmodium berghei: COc1cc(NC(C)CCCN)c2nccc(C)c2c1Oc1cccc(C(F)(F)F)c1.O=C(O)CCC(=O)O (stereo not drawn)
Resp: 4

Req: # get_value(readout= Toxic, system= Plasmodium berghei) for COc1ccc(Oc2c(OC)cc(NC(C)CCCN)c3nccc(C)c23)cc1.O=P(O)(O)O (stereo not drawn)
Resp: 3

Cited source: patent US4431807A
